- Tested on: Plasmodium falciparum NF54/iGP1_RE9H ulg8 stage V gametocytes
- Procedure summary: gametocyte viability (luciferase signal relative to DMSO control) (% of DMSO control); higher = less gametocytocidal activity, active = 50 or less
- Experimental conditions: concentration: 1 µM; exposure time: 72 h
Where a name gives a salt, the structure may show the parent alone. In all, about 1,300 compounds went through this assay and about 40 (3%) showed activity. Many of the other results were omitted from the sample, so actives are more common in it than they were.
Mark met only for gametocyte viability values smaller than 90; exact matches and larger values are not met.

Molecule | Measurement target | Class label
CCOC(=O)N1CCC(=C2c3ccc(Cl)cc3CCc3cccnc32)CC1 [Loratadine] | Plasmodium falciparum NF54/iGP1_RE9H ulg8 stage V gametocytes | met
CC(C)NCC(O)c1ccc(O)c(O)c1 (single isomer, unassigned; (+)) [(+)-Isoproterenol (+)-bitartrate salt] | Plasmodium falciparum NF54/iGP1_RE9H ulg8 stage V gametocytes | not met
O=C1Cc2cc(CCN3CCN(c4nsc5ccccc45)CC3)c(Cl)cc2N1 [Ziprasidone Hydrochloride] | Plasmodium falciparum NF54/iGP1_RE9H ulg8 stage V gametocytes | met
CCOC(=O)[C@H](CCc1ccccc1)N[C@@H](C)C(=O)N1CCC[C@H]1C(=O)O [Enalapril maleate] | Plasmodium falciparum NF54/iGP1_RE9H ulg8 stage V gametocytes | met
O=C1CC2(CCCC2)CC(=O)N1CCCCN1CCN(c2ncccn2)CC1 [Buspirone hydrochloride] | Plasmodium falciparum NF54/iGP1_RE9H ulg8 stage V gametocytes | met
Nc1ccc(S(=O)(=O)Nc2nccs2)cc1 [Sulfathiazole] | Plasmodium falciparum NF54/iGP1_RE9H ulg8 stage V gametocytes | not met

---

- Test system: Plasmodium falciparum NF54/iGP1_RE9H ulg8 stage V gametocytes
- Procedure summary: gametocyte viability (luciferase signal relative to DMSO control) (% of DMSO control); higher = less gametocytocidal activity, active = 50 or less
- Experimental conditions: concentration: 10 µM; exposure time: 72 h
About 40 (3%) of roughly 1,300 compounds showed activity. Shown is part of a subset that was picked to be rich in actives.

Molecule | gametocyte viability
CN1CCN(CCCN2c3ccccc3Sc3ccc(S(=O)(=O)N(C)C)cc32)CC1 [Thioproperazine dimesylate] | 52.8
CCOC(=O)C1=C[C@]2(CC)CCCN3CCc4c(n1c1ccccc41)[C@@H]32 | 87.6
CN(C)CCOC(c1ccccc1)c1ccccc1.Cn1c(=O)c2[nH]c(Cl)nc2n(C)c1=O [Dimenhydrinate] | 94
CC(C)c1ccc2oc3nc(N)c(C(=O)O)cc3c(=O)c2c1 | 81.5
Cc1c(Cl)cccc1Nc1ccccc1C(=O)O | 90.8

---

- System: Plasmodium falciparum NF54/iGP1_RE9H ulg8 stage V gametocytes
- Procedure summary: gametocyte viability (luciferase signal relative to DMSO control) (% of DMSO control); higher = less gametocytocidal activity, active = 50 or less
- Experimental conditions: concentration: 10 µM; exposure time: 72 h
About 40 (3%) of roughly 1,300 compounds showed activity. This excerpt belongs to a sample that is enriched for actives.
Classes used: active, inactive

Molecule | Class label
CCOC(=O)C1=C(COCCN)NC(C)=C(C(=O)OC)C1c1ccccc1Cl (configuration not stated) | inactive
CN(Cc1cnc2nc(N)nc(N)c2n1)c1ccc(C(=O)N[C@@H](CCC(=O)O)C(=O)O)cc1 (racemic) [Amethopterin (R,S)] | inactive
C=CC1=C(C(=O)O)N2C(=O)[C@@H](NC(=O)/C(=N\O)c3csc(N)n3)[C@H]2SC1 | inactive
Cc1cc(C(C)(C)CC(C)(C)C)ccc1OCCOCC[N+](C)(C)Cc1ccccc1 [Methyl benzethonium chloride] | active
C[N+](C)(CCOc1ccccc1)Cc1ccccc1.O=C([O-])c1cc2ccccc2cc1O [Bephenium hydroxynaphthoate] | inactive
CN(Cc1cnc2nc(N)nc(N)c2n1)c1ccc(C(=O)N[C@@H](CCC(=O)O)C(=O)O)cc1 [Methotrexate] | inactive
CC1(C)O[C@@H]2C[C@H]3[C@@H]4C[C@H](F)C5=CC(=O)C=C[C@]5(C)[C@@]4(F)[C@@H](O)C[C@]3(C)[C@]2(C(=O)CO)O1 [Fluocinolone acetonide] | inactive

---

- Test system: Plasmodium falciparum NF54/iGP1_RE9H ulg8 stage V gametocytes
- Procedure summary: gametocyte viability (luciferase signal relative to DMSO control) (% of DMSO control); higher = less gametocytocidal activity, active = 50 or less
- Experimental conditions: concentration: 10 µM; exposure time: 72 h
Where a name gives a salt, the structure may show the parent alone. Screen size: about 1,300 compounds; about 40 (3%) showed activity. For the sample, actives were picked, then their nearest neighbours and some compounds at random.
Classes used: yes = active, no = inactive

Compound | Measurement target | Class label
Cc1cc(C2CCCCC2)n(O)c(=O)c1 | Plasmodium falciparum NF54/iGP1_RE9H ulg8 stage V gametocytes | no
CCCc1nn(C)c2c(=O)[nH]c(-c3cc(S(=O)(=O)N4CCN(C)CC4)ccc3OCC)nc12 | Plasmodium falciparum NF54/iGP1_RE9H ulg8 stage V gametocytes | no
CCC(C)(C)c1ccc(CC(C)CN2C[C@@H](C)O[C@@H](C)C2)cc1 (stereo partly specified) [Amorolfine hydrochloride] | Plasmodium falciparum NF54/iGP1_RE9H ulg8 stage V gametocytes | no
N=C(NCCCCCCNC(=N)NC(=N)Nc1ccc(Cl)cc1)NC(=N)Nc1ccc(Cl)cc1 | Plasmodium falciparum NF54/iGP1_RE9H ulg8 stage V gametocytes | yes
CC[C@@H]1C(=O)OC[C@@H]1Cc1cncn1C [Pilocarpine nitrate] | Plasmodium falciparum NF54/iGP1_RE9H ulg8 stage V gametocytes | no
CCOC(=O)C1=C(C)NC(C)=C(C(=O)OCC)C1c1ccccc1/C=C/C(=O)OC(C)(C)C | Plasmodium falciparum NF54/iGP1_RE9H ulg8 stage V gametocytes | no
CN1CCCN=C1/C=C/c1cccc(O)c1 [Oxantel pamoate] | Plasmodium falciparum NF54/iGP1_RE9H ulg8 stage V gametocytes | no
COc1ccccc1N1CCN(CCCNc2cc(=O)n(C)c(=O)n2C)CC1 [Urapidil hydrochloride] | Plasmodium falciparum NF54/iGP1_RE9H ulg8 stage V gametocytes | yes
COc1ccccc1N1CCN(CCCCNC(=O)c2ccc3ccccc3c2)CC1 | Plasmodium falciparum NF54/iGP1_RE9H ulg8 stage V gametocytes | no
CCCCC1C(=O)N(c2ccccc2)N(c2ccccc2)C1=O | Plasmodium falciparum NF54/iGP1_RE9H ulg8 stage V gametocytes | no
N=C(N)NC(=N)NCCc1ccccc1 [Phenformin hydrochloride] | Plasmodium falciparum NF54/iGP1_RE9H ulg8 stage V gametocytes | no
CC(C)NC(=N)NC(=N)Nc1ccc(Cl)cc1 [Proguanil hydrochloride] | Plasmodium falciparum NF54/iGP1_RE9H ulg8 stage V gametocytes | no
C#C[C@]1(O)CC[C@H]2[C@@H]3CCC4=C(CCC(=O)C4)[C@H]3CC[C@@]21C | Plasmodium falciparum NF54/iGP1_RE9H ulg8 stage V gametocytes | no
C[C@@H](O[C@H]1OCCN(Cc2n[nH]c(=O)[nH]2)[C@H]1c1ccc(F)cc1)c1cc(C(F)(F)F)cc(C(F)(F)F)c1 [Aprepitant] | Plasmodium falciparum NF54/iGP1_RE9H ulg8 stage V gametocytes | no
CC(=O)OCC(=O)[C@@]12OC3(CCCC3)O[C@@H]1C[C@H]1[C@@H]3CCC4=CC(=O)C=C[C@]4(C)[C@@]3(F)[C@@H](O)C[C@@]12C [Amcinonide] | Plasmodium falciparum NF54/iGP1_RE9H ulg8 stage V gametocytes | no
CC1c2cccc(O)c2C(O)=C2C(=O)C3(O)C(O)=C(C(N)=O)C(=O)C(N(C)C)C3C(O)C21 (stereo unspecified) [Doxycycline hydrochloride] | Plasmodium falciparum NF54/iGP1_RE9H ulg8 stage V gametocytes | no

---

Parameter: gametocyte viability. Scope: all listed entries.
- Tested on: Plasmodium falciparum NF54/iGP1_RE9H ulg8 stage V gametocytes
- Procedure summary: gametocyte viability (luciferase signal relative to DMSO control) (% of DMSO control); higher = less gametocytocidal activity, active = 50 or less
- Experimental conditions: concentration: 1 µM; exposure time: 72 h
Structures can show the parent of a compound that is named as a salt. In all, about 1,300 compounds went through this assay and about 40 (3%) showed activity. This excerpt belongs to a sample that is enriched for actives.
Assay readout: gametocyte viability

Compound | Measurement target | Result
Cc1cc(C(C)(C)C)c(O)c(C)c1CC1=NCCN1 [Oxymetazoline hydrochloride] | Plasmodium falciparum NF54/iGP1_RE9H ulg8 stage V gametocytes | 89.6
CN(C)CCOC(c1ccccc1)c1ccccc1.Cn1c(=O)c2[nH]c(Cl)nc2n(C)c1=O [Dimenhydrinate] | Plasmodium falciparum NF54/iGP1_RE9H ulg8 stage V gametocytes | 89
CCN(CC)CCOc1ccc(C(=C(Cl)c2ccccc2)c2ccccc2)cc1 [Clomiphene citrate (Z,E)] | Plasmodium falciparum NF54/iGP1_RE9H ulg8 stage V gametocytes | 82.4
C[C@]12CC[C@@H]3c4ccc(O)cc4CC[C@H]3[C@@H]1CC[C@@H]2O | Plasmodium falciparum NF54/iGP1_RE9H ulg8 stage V gametocytes | 69.7

The reported numbers originate from the supplement of paper PMC12297408.
